System: AncSZ
Assay Procedure: phosphorylation enrichment, bacterial display (enrichment ratio); higher = better substrate or ligand; peptides without Tyr show the background;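 further: 11-residue human phosphosite peptides and single-mutation variants displayed on the E. coli surface, counted by deep sequencing, each peptide's frequency after selection divided by its frequency in the unselected input library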;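 further: frequency after pTyr selection over input frequency; kinase dosed for 20-30% of maximal phosphorylation in three min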
Decide by phosphorylation enrichment: equal to or exceeding 0.9 means Yes, less means No.

These recorded examples may help you get a feel for the data.
- HNLDFYKETTN [FGFR3_Y648_K650E_YF]: Yes
- DNQFAYLKAII [HNF4A_Y288_E285Q_YF]: Yes
- QHNPEYVQQAT [LRRC7_Y1058_S1063T]: No
- DYYDLYGGEKL [PTPN11_Y66_F71L]: Yes

# next sequence below
QUERY: Check if phosphorylation enrichment >= 0.9 (inclusive). Item: ATVLNYLPKCI [A2M_Y817]
RESULT: No

====

Attribute: phosphorylation enrichment
Target Or System: Fyn (UniProt P06241)
Sequence (P06241 whole entry, looked up): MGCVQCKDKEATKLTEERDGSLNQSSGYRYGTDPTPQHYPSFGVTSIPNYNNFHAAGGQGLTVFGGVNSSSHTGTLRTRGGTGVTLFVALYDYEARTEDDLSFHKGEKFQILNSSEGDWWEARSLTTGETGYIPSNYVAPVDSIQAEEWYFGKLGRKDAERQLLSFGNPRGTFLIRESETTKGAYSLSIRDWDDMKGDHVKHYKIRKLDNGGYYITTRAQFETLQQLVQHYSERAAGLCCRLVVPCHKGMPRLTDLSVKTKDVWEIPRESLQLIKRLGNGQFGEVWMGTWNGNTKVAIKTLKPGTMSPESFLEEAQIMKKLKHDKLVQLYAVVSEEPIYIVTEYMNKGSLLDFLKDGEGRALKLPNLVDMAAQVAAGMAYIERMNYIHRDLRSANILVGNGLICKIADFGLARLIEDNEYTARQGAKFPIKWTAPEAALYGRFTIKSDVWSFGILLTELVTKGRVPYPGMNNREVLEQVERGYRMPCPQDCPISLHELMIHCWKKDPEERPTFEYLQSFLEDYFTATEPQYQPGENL
Assay Procedure: phosphorylation enrichment, bacterial display (enrichment ratio); higher = better substrate or ligand; peptides without Tyr show the background
Number only, please.

Consider the worked cases shown below.
• ENPAKYDDIKK [GAPDH_Y255_K251N] = 0.506
• LFMGDYVDRGF [PPP2CA_Y86_YF] = 0.814
• VVRSLYEDLED [VHL_Y185_I180V] = 0.587
• KGNMYYENSYA [EGFR_Y113_R108K] = 0.515
• AIGFEYSEINI [SIGLEC12_Y588_YF] = 0.642
• KANEYYPVVII [ADAMTS18_Y765_L769I] = 0.613
• SHLSAYPALEG [CD5_Y465] = 0.375
• KDHPDYKFQPR [SOX10_Y171_YF] = 0.487
• FHRQLYHKCTH [F12_Y58_YF] = 0.371
• PEADKYRLTFA [FGG_Y300_YF] = 0.553

QUERY: What measured phosphorylation enrichment goes with ATAKGYEPDAS [OTC_Y223_P220A] ?
RESULT: 0.441

QUERY: Try the sequence RPSRQYATLDV [SCAMP3_Y35]
RESULT: 0.315

QUERY: Try the sequence QKMADYSNKLY [PDPR_Y104]
RESULT: 0.515

QUERY: Try the sequence ASYGPYTRVQS [FOXL2_Y258]
RESULT: 0.673

====

Target Or System: Jak2 (UniProt O60674)
Sequence (O60674 whole entry, looked up): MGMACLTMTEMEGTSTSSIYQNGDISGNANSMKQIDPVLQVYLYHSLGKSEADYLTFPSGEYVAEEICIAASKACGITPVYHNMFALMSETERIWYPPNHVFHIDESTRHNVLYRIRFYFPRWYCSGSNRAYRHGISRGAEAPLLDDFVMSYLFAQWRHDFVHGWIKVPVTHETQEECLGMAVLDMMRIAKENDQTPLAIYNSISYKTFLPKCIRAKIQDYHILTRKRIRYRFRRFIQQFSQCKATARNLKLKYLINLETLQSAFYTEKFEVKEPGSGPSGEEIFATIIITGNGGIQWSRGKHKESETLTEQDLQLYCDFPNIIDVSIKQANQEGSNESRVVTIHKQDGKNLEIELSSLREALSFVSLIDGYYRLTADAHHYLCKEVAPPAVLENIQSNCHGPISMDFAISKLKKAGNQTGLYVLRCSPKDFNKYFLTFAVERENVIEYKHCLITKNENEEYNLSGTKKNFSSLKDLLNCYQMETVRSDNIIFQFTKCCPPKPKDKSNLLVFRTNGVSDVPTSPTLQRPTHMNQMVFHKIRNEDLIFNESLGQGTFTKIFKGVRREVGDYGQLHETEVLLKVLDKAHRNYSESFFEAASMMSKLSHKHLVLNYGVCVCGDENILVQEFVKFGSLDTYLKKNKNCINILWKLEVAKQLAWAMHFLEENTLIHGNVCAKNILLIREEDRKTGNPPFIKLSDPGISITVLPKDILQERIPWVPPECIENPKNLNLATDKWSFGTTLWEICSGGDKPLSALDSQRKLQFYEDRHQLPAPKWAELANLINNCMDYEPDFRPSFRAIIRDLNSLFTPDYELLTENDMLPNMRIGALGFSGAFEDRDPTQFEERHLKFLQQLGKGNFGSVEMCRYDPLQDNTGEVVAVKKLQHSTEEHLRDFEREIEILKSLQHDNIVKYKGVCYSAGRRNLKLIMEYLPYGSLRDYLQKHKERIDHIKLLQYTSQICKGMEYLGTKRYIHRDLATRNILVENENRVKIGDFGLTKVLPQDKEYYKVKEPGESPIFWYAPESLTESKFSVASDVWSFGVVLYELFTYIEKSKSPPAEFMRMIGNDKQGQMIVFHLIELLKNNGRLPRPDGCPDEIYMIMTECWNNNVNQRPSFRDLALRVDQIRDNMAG
Assay Procedure: phosphorylation enrichment, bacterial display (enrichment ratio); higher = better substrate or ligand; peptides without Tyr show the background
Attribute: phosphorylation enrichment
Number only, please.

Consider the worked cases shown below.
* AELVRYFMEHH [PTPN11_Y80_Q79R_YF] | 0.621
* AGGTRYRFVSQ [UCN3_Y95_R91G_YF] | 0.465
* RNDLDYMDSRR [GAA_Y407_W402R] | 0.798
* EEGNPYFSGAR [MCCC2_Y520_S523G_YF] | 0.802
* LSSEMCVKSFT [F5_Y2149_Y2149C_YF] | 1.11
* DISEPYKVYRI [IRF8_Y107] | 0.78

Now take the following sequence into account.
QUERY: What measured phosphorylation enrichment goes with HDKEFYSVHNK [MET_Y1235_Y1230H_YF] ?
RESULT: 0.513

====

Attribute: phosphorylation enrichment
Target Or System: EPHB1 (UniProt P54762)
Sequence (P54762 whole entry, looked up): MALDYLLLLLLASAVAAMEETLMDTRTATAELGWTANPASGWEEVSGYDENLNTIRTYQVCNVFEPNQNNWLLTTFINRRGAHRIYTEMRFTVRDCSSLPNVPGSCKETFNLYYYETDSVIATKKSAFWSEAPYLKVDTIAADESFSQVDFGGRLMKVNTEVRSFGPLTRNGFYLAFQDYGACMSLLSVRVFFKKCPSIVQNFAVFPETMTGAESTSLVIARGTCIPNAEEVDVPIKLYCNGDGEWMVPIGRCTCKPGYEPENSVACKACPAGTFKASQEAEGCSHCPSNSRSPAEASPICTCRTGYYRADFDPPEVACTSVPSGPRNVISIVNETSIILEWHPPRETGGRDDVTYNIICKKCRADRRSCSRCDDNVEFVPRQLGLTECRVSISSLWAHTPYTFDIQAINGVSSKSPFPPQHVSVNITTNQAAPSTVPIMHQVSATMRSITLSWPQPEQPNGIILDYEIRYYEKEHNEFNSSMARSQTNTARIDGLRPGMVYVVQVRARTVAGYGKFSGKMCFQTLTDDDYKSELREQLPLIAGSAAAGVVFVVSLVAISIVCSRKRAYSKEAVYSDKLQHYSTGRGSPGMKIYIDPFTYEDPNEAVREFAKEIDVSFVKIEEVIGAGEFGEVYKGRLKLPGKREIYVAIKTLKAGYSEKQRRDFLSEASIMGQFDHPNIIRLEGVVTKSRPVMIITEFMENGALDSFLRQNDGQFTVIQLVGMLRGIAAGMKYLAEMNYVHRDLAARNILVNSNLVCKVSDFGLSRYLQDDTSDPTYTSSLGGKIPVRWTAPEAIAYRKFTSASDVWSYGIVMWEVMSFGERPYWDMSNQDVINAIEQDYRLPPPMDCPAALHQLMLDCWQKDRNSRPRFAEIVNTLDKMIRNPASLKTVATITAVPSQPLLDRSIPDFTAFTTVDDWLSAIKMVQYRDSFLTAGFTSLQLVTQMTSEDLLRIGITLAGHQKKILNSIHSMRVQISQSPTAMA
Assay Procedure: phosphorylation enrichment, bacterial display (enrichment ratio); higher = better substrate or ligand; peptides without Tyr show the background
Number only, please.

• HEVHIYEKSGA [ARPC1B_Y35] = 1.1

QUERY: What measured phosphorylation enrichment goes with SNNFIYTTLGV [FAM83B_Y639_K640T_YF] ?
RESULT: 2.23

QUERY: Try the sequence TVFENYVADIE [RHOA_Y42]
RESULT: 0.647

QUERY: Try the sequence KSSDVYVSYDC [SORL1_Y136_Y141C]
RESULT: 0.866

QUERY: Try the sequence ASKEPYYVRCI [MYO1D_Y585]
RESULT: 0.877

QUERY: Try the sequence NRLTDYYEPLL [BBS10_Y536]
RESULT: 8.92

QUERY: Try the sequence PELINCHQHNS [BTK_Y361_Y361C]
RESULT: 0.676
